src = patent EP0477700A1

tgt: adenosine deaminase (Bos taurus)
Sequence (P56658 whole entry): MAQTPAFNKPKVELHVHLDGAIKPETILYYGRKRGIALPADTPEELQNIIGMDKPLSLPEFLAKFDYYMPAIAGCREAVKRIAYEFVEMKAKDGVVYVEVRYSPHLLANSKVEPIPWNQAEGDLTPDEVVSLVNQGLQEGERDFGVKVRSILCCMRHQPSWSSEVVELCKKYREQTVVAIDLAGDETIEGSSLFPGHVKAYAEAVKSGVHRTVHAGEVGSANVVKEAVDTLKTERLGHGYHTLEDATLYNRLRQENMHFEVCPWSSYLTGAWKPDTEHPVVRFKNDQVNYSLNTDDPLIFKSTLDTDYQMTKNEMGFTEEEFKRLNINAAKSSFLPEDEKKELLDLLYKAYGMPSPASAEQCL
protocol: Adenosine deaminase resistance (remaining compound measured by HPLC)
assay.setup: 30 minutes; 5 mM compound in 0.05 M Tris-HCl buffer (pH 7.2); adenosine deaminase (calf intestine); 25°C
quantity.measured: Percent remainder 30 minutes (%)
Please respond with the number in % and leave the unit unwritten.

Field: example entries. Status: answers known.
CC(O)C1=C[C@@H](n2cnc3c(N)ncnc32)[C@H](O)[C@@H]1O (stereo partly shown)
92
Nc1ncnc2c1ncn2[C@@H]1C=C(CO)[C@@H](O)[C@H]1O
0
C#CC(O)C1=C[C@@H](n2cnc3c(N)ncnc32)[C@H](O)[C@@H]1O (stereo partly shown)
96

Moving on to another compound below.
Which Percent remainder 30 minutes reading was recorded for the compound CCC(O)C1=C[C@@H](n2cnc3c(N)ncnc32)[C@H](O)[C@@H]1O (stereo partly shown) ?
94
